# Test system: HOP-62
# protocolSummary: NCI tumour cell line growth inhibition, 48 h
Activity calls are given as the source filed them. No stated cut-off is given here; in the data, active = GI50 up to about 1.1 µM and inactive = higher.
observedProperty: GI50

{"molecule": "CCCCOCCOCCOC1=C(Cl)C(=O)c2c(O)ccc(O)c2C1=O", "assayedSystem": "HOP-62", "result": "1.19 µM (inactive)"}
{"molecule": "COc1ccc(-c2cc(-c3ccc(Nc4ccnc5cc(Cl)ccc45)cc3)nc(N)c2C#N)c2ccccc12", "assayedSystem": "HOP-62", "result": "> 100 µM (inactive)"}
{"molecule": "COc1cc(C2C3=C(COC3=O)Oc3cc4c(cc32)OCO4)ccc1OC(C)=O (stereo not given)", "assayedSystem": "HOP-62", "result": "1.73 µM (inactive)"}
{"molecule": "CCCCCCCCC1=CCC(CN(C)C)C1=O (stereo not given)", "assayedSystem": "HOP-62", "result": "> 31.6 µM (inactive)"}
{"molecule": "C[N+](C)(C)CC1CCCC(C[N+](C)(C)C)C1O (stereo not given)", "assayedSystem": "HOP-62", "result": "> 100 µM (inactive)"}
{"molecule": "CC(C)C1=CC2=CC[C@@H]3[C@](C)(CCC[C@@]3(C)C(=O)O)[C@H]2CC1 [ABIETIC ACID]", "assayedSystem": "HOP-62", "result": "> 67.8 µM (inactive)"}
{"molecule": "NNC(=O)C(=O)N/N=C(\\CCCC(=O)Nc1ccc(Cl)cc1)CC(=O)c1ccc(F)cc1", "assayedSystem": "HOP-62", "result": "> 100 µM (inactive)"}
{"molecule": "O=C(N/C(=C\\c1c(O)ccc2ccccc12)c1nc2ccccc2[nH]1)c1ccccc1", "assayedSystem": "HOP-62", "result": "25.9 µM (inactive)"}
{"molecule": "COC(=O)CCC(=O)Nc1cc(C)ccc1C", "assayedSystem": "HOP-62", "result": "> 100 µM (inactive)"}
{"molecule": "Oc1cc(Cc2ccccc2)c(Cc2ccccc2)cc1O", "assayedSystem": "HOP-62", "result": "> 10 µM (inactive)"}
